System: MDA-MB-468 breast
Run Description: NCI-60 one-dose screen, 48 h (100 = growth as untreated, 0 = no growth, -100 = all killed)
Test Settings: 10 µM unless noted
Protocol: Growth inhibition of the MDA-MB-468 human Breast tumor cell line is measured as a screen for anti-cancer activity. Cells are grown in 96 well plates and exposed to the test compound for 48 hours. Compounds are tested at a single concentration, which is 10^-5 M for most compounds. The reported endpoint is percent growth (GI% or GIPRCNT), where numbers from 0 - 100% represent growth inhibition, and numbers from -100% - 0 represent cell death. […]
This is part of a sample that, as a whole, favours compounds with a hit. Of some 83,000 tested, about 20% had one in any assay.
// label = MET if growth is not less than 70%, otherwise NOT MET

Would you please look over these solved cases?
[[record]]
compound = "CCCOCC(O)CNCCN (stereo unspecified)"
cat = "MET"

[[record]]
compound = "COc1ccc2cc(/C=C3\\N=C(c4cc(OC)c(OC)c(OC)c4)OC3=O)c(OC)nc2c1"
cat = "MET"

[[record]]
compound = "Oc1ccc(Cl)cc1-c1cc(-c2ccc(Cl)cc2)n[nH]1"
cat = "NOT MET"


Now let's try a different one.
Problem: Can `O=C(N/N=C/c1c(Cl)cccc1Cl)c1ccc(C(F)(F)F)nc1Nc1cccc(C(F)(F)F)c1` be said to have growth at or above 70%?
Solution: NOT MET
